Origin of measurements: patent US4305942A

Biological target: xanthine oxidase (Bos taurus)
Construct: purchased CALBIOCHEM 682151
Sequence (P80457 whole entry): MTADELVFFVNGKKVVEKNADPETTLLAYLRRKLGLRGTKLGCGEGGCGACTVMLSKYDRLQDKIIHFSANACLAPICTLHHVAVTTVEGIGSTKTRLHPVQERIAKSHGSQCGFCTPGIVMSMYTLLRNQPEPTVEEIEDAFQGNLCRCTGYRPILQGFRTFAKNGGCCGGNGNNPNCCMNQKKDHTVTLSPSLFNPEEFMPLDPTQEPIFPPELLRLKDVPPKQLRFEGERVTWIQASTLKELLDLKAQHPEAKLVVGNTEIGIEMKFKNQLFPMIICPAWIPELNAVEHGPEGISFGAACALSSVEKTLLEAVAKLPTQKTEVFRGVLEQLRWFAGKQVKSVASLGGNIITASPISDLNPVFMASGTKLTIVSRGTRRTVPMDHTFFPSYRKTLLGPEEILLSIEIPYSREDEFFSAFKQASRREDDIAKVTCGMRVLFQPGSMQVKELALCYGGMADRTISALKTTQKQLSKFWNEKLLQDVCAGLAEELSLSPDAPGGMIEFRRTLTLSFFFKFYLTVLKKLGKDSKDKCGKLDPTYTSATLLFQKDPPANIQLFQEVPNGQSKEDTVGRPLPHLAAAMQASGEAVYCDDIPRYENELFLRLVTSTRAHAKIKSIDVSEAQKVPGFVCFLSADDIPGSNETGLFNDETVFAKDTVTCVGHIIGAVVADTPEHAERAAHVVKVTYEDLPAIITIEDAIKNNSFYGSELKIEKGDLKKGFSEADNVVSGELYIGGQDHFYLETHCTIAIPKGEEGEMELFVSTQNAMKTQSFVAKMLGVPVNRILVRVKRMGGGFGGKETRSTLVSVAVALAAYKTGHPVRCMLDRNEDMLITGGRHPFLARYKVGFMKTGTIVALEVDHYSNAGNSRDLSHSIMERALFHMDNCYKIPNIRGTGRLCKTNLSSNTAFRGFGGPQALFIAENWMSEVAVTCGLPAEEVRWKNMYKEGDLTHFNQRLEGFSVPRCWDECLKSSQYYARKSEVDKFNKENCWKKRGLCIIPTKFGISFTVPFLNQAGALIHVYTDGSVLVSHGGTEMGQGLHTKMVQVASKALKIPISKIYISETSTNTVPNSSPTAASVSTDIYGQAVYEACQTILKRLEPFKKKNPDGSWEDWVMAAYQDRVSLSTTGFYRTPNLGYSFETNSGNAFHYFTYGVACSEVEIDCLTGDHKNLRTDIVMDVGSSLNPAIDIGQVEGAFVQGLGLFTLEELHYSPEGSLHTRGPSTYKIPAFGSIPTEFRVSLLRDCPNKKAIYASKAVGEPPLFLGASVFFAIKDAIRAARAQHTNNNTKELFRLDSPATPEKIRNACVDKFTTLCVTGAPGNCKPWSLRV
Assay: xanthine oxidase inhibition in vitro (UV-spectrophotometric uric acid formation at 290 nm from hypoxanthine)
Type: biochemical
Conditions: 50% inhibitive concentration IC50 (xanthine oxidase), interpolated from inhibition values; hypoxanthine substrate; pH 7.4
observable: pIC50
pIC50 is a log-scale quantity: -log10 of the concentration expressed in molar.

Ask: Recorded pIC50 of CCCC1C(=O)N2C(N(C)C)=Nc3ccc(C)cc3N2C1=O (stereo not shown) [azapropazone, dihydrate] , please.
Reply: 4.40
